Biological target: canine TRPM8 (Canis lupus familiaris)
Test: In Vitro Canine TRPM8 Functional Assay (Ca2+ fluorescence, icilin activation)
Type: cell-based
Details: compound at 0.2 μM; canine TRPM8, icilin activation
Property: % Inh @ 0.2 (μM); scope: individual compounds
Respond with the bare value in %.

Guide cases for % Inh @ 0.2 (μM), answers given:
CC(=O)Nc1ccc(S(=O)(=O)N(Cc2ccc(F)c(C(F)(F)F)c2)c2sc3ccccc3c2C)cc1Cl
101
Cc1c(N(CCCCC(F)(F)F)S(=O)(=O)c2nc3ccccc3[nH]2)sc2ccccc12
16
Cc1c(N(CCC2CC2)S(=O)(=O)c2ccc(C(=O)[O-])cc2)sc2ccccc12.[Na+]
102

Requested read-out % Inh @ 0.2 (μM), target or system canine TRPM8 (Canis lupus familiaris), entry "CCCCN(c1sc2ccccc2c1C(=O)NC)S(=O)(=O)c1ccc(C(=O)OC)cc1"
66

Same read-out for "CCCCN(c1cc2ccccc2s1)S(=O)(=O)c1ccc(C(N)=NO)cc1" ?
97

Input O=S1NC(c2ccc(S(=O)(=O)N(CCCCC(F)(F)F)c3sc4ccccc4c3Cl)cc2)=NO1 (stereo not shown)
96

Same for "O=S(=O)(c1cccnc1)N(CCCC(F)(F)F)c1sc2ccccc2c1Cl"
78

Now this one: Cc1c(N(CCC2CC2)S(=O)(=O)c2ccc(C3=NOS(=O)N3)cc2)sc2ccccc12 (stereo not shown)
101

Record: "Cc1c(N(CCC(F)(F)F)S(=O)(=O)c2ccc(C(=O)[O-])cc2)sc2ccccc12.[Na+]"
101

Record: O=S1NC(c2ccc(S(=O)(=O)N(CCCCC(F)(F)F)c3sc4ccccc4c3Br)cc2)=NO1 (stereo not shown)
100

---

Molecular target: canine TRPM8 (Canis lupus familiaris)
Test: In Vitro Canine TRPM8 Functional Assay (Ca2+ fluorescence, icilin activation)
Type: cell-based
Details: compound at 0.5 μM; canine TRPM8, icilin activation; read-out: % Inh @ 0.5
Parameter Measured: inhibition at 0.5 µM (%)
Write the number in % without appending the unit.

Guide cases for inhibition at 0.5 µM, answers given:
O=S(=O)(c1ccccc1)N(Cc1ccccc1)c1cc2ccccc2s1
98
CCS(=O)(=O)N(Cc1ccc(F)c(F)c1)c1cc2ccccc2s1
100
Cc1c(N(Cc2ccc(OC(F)(F)F)cc2)S(=O)(=O)c2ccsc2)sc2ccccc12
99
O=S(=O)(c1ccccc1)N(Cc1ccc(C(F)(F)F)cc1)c1sc2ccccc2c1Cl
99
O=S(=O)(c1ccccc1)N(CCc1ccccc1)c1sc2ccccc2c1Br
93

Form: Entry = "Cc1c(N(Cc2cccc3cccnc23)S(=O)(=O)c2cc3ccccc3s2)sc2ccccc12" | System = canine TRPM8 (Canis lupus familiaris) | inhibition at 0.5 µM = ____
58

Same thing, different compound: "O=[N+]([O-])c1cccc(CN(c2cc3ccccc3s2)S(=O)(=O)c2ccccc2)c1"
98

Request: "O=S(=O)(c1cccs1)N(Cc1ccc(F)c(C(F)(F)F)c1)c1sc2ccccc2c1Br"
97

---

Measured inhibition at 0.2 µM by item
Target: canine TRPM8 (Canis lupus familiaris, UniProt Q1A7N1)
Sequence (Q1A7N1 1-1104): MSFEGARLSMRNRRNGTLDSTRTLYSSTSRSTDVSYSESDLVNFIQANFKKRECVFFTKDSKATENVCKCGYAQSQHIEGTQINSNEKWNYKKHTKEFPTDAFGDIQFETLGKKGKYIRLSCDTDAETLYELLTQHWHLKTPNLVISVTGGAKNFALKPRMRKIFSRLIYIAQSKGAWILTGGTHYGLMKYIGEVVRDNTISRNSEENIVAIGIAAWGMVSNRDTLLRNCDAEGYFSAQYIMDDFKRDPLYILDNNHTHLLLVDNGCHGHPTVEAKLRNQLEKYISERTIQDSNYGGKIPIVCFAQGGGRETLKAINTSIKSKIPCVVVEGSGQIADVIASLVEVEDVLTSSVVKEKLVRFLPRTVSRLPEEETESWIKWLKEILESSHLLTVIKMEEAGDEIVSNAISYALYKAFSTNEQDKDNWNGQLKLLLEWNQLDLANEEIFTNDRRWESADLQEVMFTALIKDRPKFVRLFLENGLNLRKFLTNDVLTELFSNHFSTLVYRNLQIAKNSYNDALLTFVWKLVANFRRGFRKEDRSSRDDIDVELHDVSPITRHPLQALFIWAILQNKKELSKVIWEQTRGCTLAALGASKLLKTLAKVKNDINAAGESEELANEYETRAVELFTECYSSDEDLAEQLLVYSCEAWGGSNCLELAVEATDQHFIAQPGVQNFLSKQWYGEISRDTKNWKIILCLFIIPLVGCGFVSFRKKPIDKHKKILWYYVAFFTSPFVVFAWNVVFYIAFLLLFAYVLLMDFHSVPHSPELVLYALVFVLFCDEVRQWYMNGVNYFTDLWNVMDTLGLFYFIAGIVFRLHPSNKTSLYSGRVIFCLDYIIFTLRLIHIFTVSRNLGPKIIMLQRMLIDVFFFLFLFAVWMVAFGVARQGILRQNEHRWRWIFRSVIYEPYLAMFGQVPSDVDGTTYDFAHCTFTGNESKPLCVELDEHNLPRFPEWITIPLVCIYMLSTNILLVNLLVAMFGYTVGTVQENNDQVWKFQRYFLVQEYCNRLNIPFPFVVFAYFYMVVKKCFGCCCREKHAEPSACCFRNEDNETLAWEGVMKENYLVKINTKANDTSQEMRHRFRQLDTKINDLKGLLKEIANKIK
Assay: In Vitro Canine TRPM8 Functional Assay (Ca2+ fluorescence, icilin activation)
Type: cell-based
Conditions: compound at 0.2 μM; canine TRPM8, icilin activation; read-out: % Inh @ 0.2
Quick note: give the figure in %, leave out the unit.

Completed entries (count: 3):
Cc1c(N(Cc2ccc(OC(F)(F)F)cc2)S(=O)(=O)c2ccc(-c3nnn[nH]3)cc2)sc2ccccc12 [Compound 785]
102
CCCCN(C1=Cc2ccccc2S1(=O)=O)S(=O)(=O)c1ccc(C(=O)O)cc1 [Compound 432]
42
COCCN(c1sc2ccccc2c1Br)S(=O)(=O)c1ccc(C(=O)O)cc1 [Compound 274]
94

Here is another compound to look at.
Name the recorded inhibition at 0.2 µM for COC(=O)CS(=O)(=O)N(Cc1ccc(OC(F)(F)F)cc1)c1sc2ccccc2c1C [Compound 761] .
79

---

Target: canine TRPM8 (Canis lupus familiaris)
Test: In Vitro Canine TRPM8 Functional Assay (Ca2+ fluorescence, icilin activation)
Assay type: cell-based
Details: compound at 0.2 μM; canine TRPM8, icilin activation; read-out: % Inh @ 0.2
Parameter Measured: inhibition at 0.2 µM (%)
Write the number in % without appending the unit.

A selection of reference data follows.
COC(=O)c1ccc(S(=O)(=O)N(Cc2ccc(F)c(C(F)(F)F)c2)c2cc3ccccc3s2)cc1 [Compound 135]
18
CC(C)CN(c1sc2ccccc2c1Br)S(=O)(=O)c1ccc(C(=O)O)cc1 [Compound 452]
101
Cc1c(N(Cc2ccc(OC(F)(F)F)cc2)S(=O)(=O)c2ccc(C(=O)O)c(F)c2)sc2ccccc12 [Compound 774]
95
Cc1c(N(Cc2ccc(OC(F)(F)F)cc2)S(=O)(=O)c2ccc(C(=O)O)cc2)sc2ccccc12 [Compound 496]
101
O=S(=O)(c1cccc(O)c1)N(Cc1ccc(F)c(C(F)(F)F)c1)c1sc2ccccc2c1Br [Compound 291]
101

Would you kindly share the measured inhibition at 0.2 µM for O=S(=O)(c1cccnc1Cl)N(Cc1ccc(F)c(C(F)(F)F)c1)c1sc2ccccc2c1Cl [Compound 321] ?
81

What would you report for Cc1c(N(Cc2ccc(F)c(C(F)(F)F)c2)S(=O)(=O)c2nc3ccccc3n2C)sc2ccccc12 [Compound 722] ?
28

Moving on to the next compound: CCCCN(c1sc2ccccc2c1OC)S(=O)(=O)c1ccc(C(=O)O)cc1 [Compound 423]
93

---

Target: UniProtKB Q1A7N1
Test: In Vitro Canine TRPM8 Functional Assay (Ca2+ fluorescence, icilin activation)
Assay type: cell-based
Details: HEK293 cells stably expressing canine TRPM8; icilin activation; eight-point dose-response; read-out: IC50
Parameter Measured: IC50 (nM)
Field format: number, assumed nM, no unit text.

IC50 lookup needed for "CS(=O)(=O)Nc1cccc(S(=O)(=O)N(CCC(F)(F)F)c2sc3ccccc3c2Br)c1" , thanks.
24

Another: "Cn1cnc(S(=O)(=O)N(Cc2ccc(F)c(F)c2)c2cc3ccccc3s2)c1"
104

Now try "Cc1c(N(Cc2ccc(F)c(C(F)(F)F)c2)S(=O)(=O)c2ccc3c(c2)NC(=O)CO3)sc2ccccc12" .
55

---

Biological target: canine TRPM8 (Canis lupus familiaris)
Assay: In Vitro Canine TRPM8 Functional Assay (Ca2+ fluorescence, icilin activation)
Assay type: cell-based
Conditions: compound at 0.2 μM; canine TRPM8, icilin activation; read-out: % Inh @ 0.2
Parameter Measured: inhibition at 0.2 µM (%)
Your answer is read as %, so omit the unit and give the number.

In the examples that follow, each entry is paired with its recorded inhibition at 0.2 µM.
Cc1c(N(Cc2ccc(F)c(C(F)(F)F)c2)S(=O)(=O)c2ccc3c(c2)CN(C)CC3)sc2ccccc12
77
O=S1(=O)C(N(CCC2CC2)S(=O)(=O)c2ccccc2)=C(Br)c2ccccc21
101
Cc1nnc(-c2cccc(S(=O)(=O)N(Cc3ccc(F)c(C(F)(F)F)c3)c3sc4ccccc4c3C)c2)o1
101
CS(=O)(=O)Nc1ccc(S(=O)(=O)N(CCC2CC2)c2sc3ccccc3c2Br)cc1
102

I am curious: what inhibition at 0.2 µM value has been reported for "O=S(=O)(c1cccc(-c2nnn[nH]2)c1)N(Cc1ccc(F)c(C(F)(F)F)c1)c1sc2ccccc2c1Cl" ?
91

Field entry: "Cc1c(N(CC(F)F)S(=O)(=O)c2ccccc2)sc2ccccc12"
98

Another compound: "Cc1c(N(CCC2CC2)S(=O)(=O)c2ccc(C(=O)N[C@@H]3CCNC3)cc2)sc2ccccc12"
38

Another: "Cc1c(N(Cc2ccc(F)cc2C(F)(F)F)S(=O)(=O)c2ccc(C(=O)O)cc2)sc2ccccc12"
101

// next record "Cc1c(N(Cc2ccc(F)c(C(F)(F)F)c2)S(=O)(=O)c2cn(C)nc2C(F)(F)F)sc2ccccc12"
94

Thanks! And "CCCCN(c1cc2ccccc2s1)S(=O)(=O)c1ccc(N2CCCC2)cc1" ?
58

---

Molecular target: canine TRPM8 (Canis lupus familiaris, UniProt Q1A7N1)
Experiment: In Vitro Canine TRPM8 Functional Assay (Ca2+ fluorescence, icilin activation)
Assay type: cell-based
Settings: HEK293 cells stably expressing canine TRPM8; icilin activation; eight-point dose-response; read-out: IC50
pIC50: −log10 of the molar value.
Decide by pIC50: equal to or exceeding 8 means class 1, less means class 0.

COC(=O)CN(c1sc2ccccc2c1C)S(=O)(=O)c1ccccc1 [Compound 101]
class 0

Could you tell me if the measured pIC50 of Cc1c(N(Cc2ccc(F)c(C(F)(F)F)c2)S(=O)(=O)c2ccc(C(=O)O)cc2)sc2ccccc12 [Compound 306] reaches 8 or more?
class 1

// same read-out, input: CCS(=O)(=O)N(CC1CC1)c1sc2ccccc2c1C [Compound 112]
class 0

How about this compound: Cc1c(N(CCC2CC2)S(=O)(=O)CC(F)(F)F)sc2ccccc12 [Compound 670]
class 0
